Values were extracted from patent US20240374591A1.

biological target: AR in VCaP cells (Homo sapiens); construct: endogenous in cells; host or cells: VCaP cells; assay: VCAP AR Degradation Assay (AR ELISA, 24 h); assay type: cell-based; details: concentration giving 50% AR degradation vs DMSO control
Counter-ions that a name gives are not always drawn.
Listed next: entries and their corresponding DC50.

molecule	test-target	DC50
C[C@@H]1CN(CCCC[C@H]2CC[C@H](N3C(=S)N(c4ccc(C#N)c(C(F)(F)F)c4)C(=O)C3(C)C)CC2)C[C@H](C)N1CC(=O)Nc1ccc(N2CCC(=O)NC2=O)nc1 [Cmpd 15]	AR in VCaP cells (Homo sapiens)	100 to 10000 nM
C[C@@H]1C[C@H](CCO[C@H]2CC[C@H](N3C(=S)N(c4cnc(C#N)c(C(F)(F)F)c4)C(=O)C3(C)C)CC2)C[C@H](C)N1CC(=O)Nc1ccc(C2CCC(=O)NC2=O)nc1 (stereo partly shown) [Cmpd 18]	AR in VCaP cells (Homo sapiens)	≤ 5 nM
C[C@@H]1CN(CCO[C@H]2CC[C@H](N3C(=S)N(c4ccc(C#N)c(C(F)(F)F)c4)C(=O)C3(C)C)CC2)C[C@H](C)N1CCC(=O)Nc1ccc(N2CCC(=O)NC2=O)nc1 [Cmpd 9]	AR in VCaP cells (Homo sapiens)	10 to 100 nM
CC1(C)C(=O)N(c2cnc(C#N)c(C(F)(F)F)c2)C(=S)N1[C@H]1CC[C@H](OCCN2CCN(CC(=O)Nc3ccc(C4CCC(=O)NC4=O)nc3)[C@@H](C(F)(F)F)C2)CC1 (stereo partly shown) [Cmpd 24]	AR in VCaP cells (Homo sapiens)	≤ 5 nM
C[C@@H]1CN(CCCO[C@H]2CC[C@H](N3C(=S)N(c4cnc(C#N)c(C(F)(F)F)c4)C(=O)C3(C)C)CC2)C[C@H](C)N1CC(=O)Nc1ccc(C2CCC(=O)NC2=O)nc1 (stereo partly shown) [Cmpd 4, hydrochloride]	AR in VCaP cells (Homo sapiens)	≤ 5 nM
CC1(C)C(=O)N(c2ccc(C#N)c(C(F)(F)F)c2)C(=S)N1[C@H]1CC[C@H](OCCCN2CCN(CC(=O)Nc3ccc(C4CCC(=O)NC4=O)nc3)[C@@H](C(F)(F)F)C2)CC1 (stereo partly shown) [Cmpd 25]	AR in VCaP cells (Homo sapiens)	≤ 5 nM
C[C@@H]1CN(CCO[C@H]2CC[C@H](N3C(=S)N(c4ccc(C#N)c(C(F)(F)F)c4)C(=O)C3(C)C)CC2)C[C@H](C)N1CC(=O)Nc1ccc(N2CCC(=O)NC2=O)nc1 [Cmpd 1]	AR in VCaP cells (Homo sapiens)	100 to 10000 nM
C[C@@H]1C[C@H](OCC[C@H]2CC[C@H](N3C(=S)N(c4ccc(C#N)c(C(F)(F)F)c4)C(=O)C3(C)C)CC2)C[C@H](C)N1CC(=O)Nc1ccc(C2CCC(=O)NC2=O)nc1 (stereo partly shown) [Cmpd 27]	AR in VCaP cells (Homo sapiens)	5 to 10 nM
C[C@@H]1C[C@H](OCCO[C@H]2CC[C@H](N3C(=S)N(c4ccc(C#N)c(C(F)(F)F)c4)C(=O)C3(C)C)CC2)C[C@H](C)N1CC(=O)Nc1ccc(C2CCC(=O)NC2=O)nc1 (stereo partly shown) [Cmpd 29]	AR in VCaP cells (Homo sapiens)	≤ 5 nM
CC1(C)C(=O)N(c2ccc(C#N)c(C(F)(F)F)c2)C(=S)N1[C@H]1CC[C@H](OCCC2CCN(CC(=O)Nc3ccc(C4CCC(=O)NC4=O)nc3)CC2(F)F)CC1 (stereo partly shown) [Cmpd 31]	AR in VCaP cells (Homo sapiens)	≤ 5 nM

----------
target: AR in VCaP cells (Homo sapiens, UniProt P10275); construct: endogenous in cells; host or cells: VCaP cells; assay: VCAP AR Degradation Assay (AR ELISA, 24 h); type: cell-based; details: concentration giving 50% AR degradation vs DMSO control
Counter-ions that a name gives are not always drawn.
Listed next: entries and their corresponding DC50.

compound	DC50
C[C@@H]1C[C@@H](CCO[C@H]2CC[C@H](N3C(=S)N(c4ccc(C#N)c(C(F)(F)F)c4)C(=O)C3(C)C)CC2)C[C@H](C)N1CC(=O)Nc1ccc(C2CCC(=O)NC2=O)nc1 (stereo partly drawn) [Cmpd 14, hydrochloride]	≤ 5 nM
C[C@@H]1C[C@H](OCC[C@H]2CC[C@H](N3C(=S)N(c4cnc(C#N)c(C(F)(F)F)c4)C(=O)C3(C)C)CC2)C[C@H](C)N1CC(=O)Nc1ccc(C2CCC(=O)NC2=O)nc1 (stereo partly drawn)	≤ 5 nM
CC1(C)C(=O)N(c2ccc(C#N)c(C(F)(F)F)c2)C(=S)N1[C@H]1CC[C@H](OCCN2CCN(CC(=O)Nc3ccc(C4CCC(=O)NC4=O)nc3)[C@@H](C(F)(F)F)C2)CC1 (stereo partly drawn) [Cmpd 13, hydrochloride]	5 to 10 nM

----------
molecular target: AR in VCaP cells (Homo sapiens, UniProt P10275); construct: endogenous in cells; host or cells: VCaP cells; assay: VCAP AR Degradation Assay (AR ELISA, 24 h); assay type: cell-based; details: concentration giving 50% AR degradation vs DMSO control
Structures can show the parent of a compound that is named as a salt.
assay-metric: DC50

compound	assay-metric	observed-measurement
C[C@@H]1C[C@H](CCO[C@H]2CC[C@H](N3C(=S)N(c4ccc(C#N)c(C(F)(F)F)c4)C(=O)C3(C)C)CC2)C[C@H](C)N1CC(=O)Nc1ccc(C2CCC(=O)NC2=O)nc1 (some centres unmarked)	DC50	≤ 5 nM
C[C@@H]1CN(CCO[C@H]2CC[C@H](N3C(=S)N(c4ccc(C#N)c(C(F)(F)F)c4)C(=O)C3(C)C)CC2)C[C@H](C)N1CC(=O)Nc1ccc(C2CCC(=O)NC2=O)nc1 (some centres unmarked) [Cmpd 2, hydrochloride]	DC50	5 to 10 nM
C[C@@H]1CN(CCC[C@H]2CC[C@H](N3C(=S)N(c4ccc(C#N)c(C(F)(F)F)c4)C(=O)C3(C)C)CC2)C[C@H](C)N1CC(=O)Nc1ccc(C2CCC(=O)NC2=O)nc1 (some centres unmarked)	DC50	5 to 10 nM
C[C@@H]1CN(CCO[C@H]2CC[C@H](N3C(=S)N(c4cnc(C#N)c(Cl)c4)C(=O)C3(C)C)CC2)C[C@H](C)N1CC(=O)Nc1ccc(C2CCC(=O)NC2=O)nc1 (some centres unmarked) [Cmpd 6, hydrochloride]	DC50	≤ 5 nM
C[C@@H]1CN(CCC[C@H]2CC[C@H](N3C(=S)N(c4ccc(C#N)c(Cl)c4)C(=O)C3(C)C)CC2)C[C@H](C)N1CC(=O)Nc1ccc(C2CCC(=O)NC2=O)nc1 (some centres unmarked) [Cmpd 10, hydrochloride]	DC50	10 to 100 nM

----------
Target: AR in VCaP cells (Homo sapiens)
Construct: endogenous in cells; host or cells: VCaP cells
Sequence (P10275 1-920): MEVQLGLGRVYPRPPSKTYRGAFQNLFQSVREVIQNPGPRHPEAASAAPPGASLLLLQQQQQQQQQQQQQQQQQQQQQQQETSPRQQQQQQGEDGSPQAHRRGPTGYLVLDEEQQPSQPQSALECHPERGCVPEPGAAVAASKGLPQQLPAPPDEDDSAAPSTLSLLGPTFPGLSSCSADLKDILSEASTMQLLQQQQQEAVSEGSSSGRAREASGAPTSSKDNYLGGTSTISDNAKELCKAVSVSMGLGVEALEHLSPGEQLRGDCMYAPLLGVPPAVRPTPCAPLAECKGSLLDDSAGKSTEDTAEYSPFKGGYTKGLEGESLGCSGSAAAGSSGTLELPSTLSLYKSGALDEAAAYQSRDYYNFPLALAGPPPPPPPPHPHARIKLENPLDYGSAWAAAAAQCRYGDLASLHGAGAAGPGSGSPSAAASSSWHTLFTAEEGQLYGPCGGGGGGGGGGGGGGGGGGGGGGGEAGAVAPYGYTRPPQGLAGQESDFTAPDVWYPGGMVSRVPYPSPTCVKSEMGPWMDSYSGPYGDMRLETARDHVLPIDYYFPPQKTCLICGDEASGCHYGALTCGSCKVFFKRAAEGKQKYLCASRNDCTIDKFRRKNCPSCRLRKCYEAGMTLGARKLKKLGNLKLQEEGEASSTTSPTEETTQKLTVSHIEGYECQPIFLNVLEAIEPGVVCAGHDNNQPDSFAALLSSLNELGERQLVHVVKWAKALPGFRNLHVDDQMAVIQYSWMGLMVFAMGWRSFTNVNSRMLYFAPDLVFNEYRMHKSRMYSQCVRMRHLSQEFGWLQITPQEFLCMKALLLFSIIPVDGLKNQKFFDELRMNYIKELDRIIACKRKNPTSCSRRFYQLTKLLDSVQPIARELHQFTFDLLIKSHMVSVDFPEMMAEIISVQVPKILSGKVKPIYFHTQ
Assay: VCAP AR Degradation Assay (AR ELISA, 24 h)
Assay type: cell-based
Conditions: concentration giving 50% AR degradation vs DMSO control
Structures can show the parent of a compound that is named as a salt.

compound	test-target	DC50
C[C@@H]1CN(CCCO[C@H]2CC[C@H](N3C(=S)N(c4ccc(C#N)c(C(F)(F)F)c4)C(=O)C3(C)C)CC2)C[C@H](C)N1CC(=O)Nc1ccc(N2CCC(=O)NC2=O)nc1 [Cmpd 12, hydrochloride]	AR in VCaP cells (Homo sapiens)	100 to 10000 nM
C[C@@H]1C[C@H](OCCO[C@H]2CC[C@H](N3C(=S)N(c4cnc(C#N)c(C(F)(F)F)c4)C(=O)C3(C)C)CC2)C[C@H](C)N1CC(=O)Nc1ccc(C2CCC(=O)NC2=O)nc1 (stereo partly shown)	AR in VCaP cells (Homo sapiens)	≤ 5 nM
C[C@@H]1CN(CCC[C@H]2CC[C@H](N3C(=S)N(c4cnc(C#N)c(C(F)(F)F)c4)C(=O)C3(C)C)CC2)C[C@H](C)N1CC(=O)Nc1ccc(C2CCC(=O)NC2=O)nc1 (stereo partly shown) [Cmpd 8, hydrochloride]	AR in VCaP cells (Homo sapiens)	≤ 5 nM
C[C@@H]1CN(CCCO[C@H]2CC[C@H](N3C(=S)N(c4ccc(C#N)c(C(F)(F)F)c4)C(=O)C3(C)C)CC2)C[C@H](C)N1CC(=O)Nc1ccc(C2CCC(=O)NC2=O)nc1 (stereo partly shown) [Cmpd 5, hydrochloride]	AR in VCaP cells (Homo sapiens)	≤ 5 nM
